Target: Dihydroorotate dehydrogenase (quinone), mitochondrial (Plasmodium falciparum (isolate 3D7))
Test: inhibition of P. falciparum DHODH – biochemical, C-terminal His tag, absorbance 600 nm, primary screen (AID 1175);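 note: recombinant parasite enzyme with a five histidine tag at its C terminus; test concentration not given here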
Details: PfDHODH enzyme, DCIP absorbance 600 nm; higher = more signal, called active from +8 up or from −8 down
Note to self: values exactly at -0.4 are 1. So composite z-score at or above -0.4 is 1, below is 0.

Sample answers from the record:
# Compound, Group
data = [
    ("CCN(CC)c1ccc(N2CC=CC34O[C@@H]5C=CCCOC(=O)C5[C@H]3C(=O)N(CCCO)[C@@H]4C2=O)cc1 (some centres not stated)", 0),
    ("C[n+]1ccc2ccc(O)cc2c1", 0),
    ("C=CCC(OC(C)=O)[C@@H]1[C@@H](N(Cc2cc3ccccc3o2)C(=O)c2cccc3ccccc23)c2cc(OCCCO)ccc2N1C(=O)Cc1ccc(OC)cc1 (some centres not stated)", 1),
    ("Cc1ccc(S[C@]2(C(=O)NCC(C)C)CC(=O)N(Cc3ccccc3)[C@@H]2c2ccc(CO)cc2)cc1", 0),
    ("C=CCC(OC(C)=O)[C@@H]1[C@@H](N(Cc2ccc(-c3cccc(C(F)(F)F)c3)o2)C(=O)c2ccc(C)cc2)c2cc(OCCCO)ccc2N1C(=O)c1ccc2ccccc2n1 (some centres not stated)", 0),
]

Exercise: Exam item: decide whether the reported composite z-score for COc1ccc([Si](C)(C)[C@H]2[C@H](CCO)O[C@@]3(C(=O)N(Cc4ccccc4)c4ccc(N5C(=O)COc6ccccc65)cc43)[C@@H]2C)cc1 is at least -0.4.
Key: 1

Exercise: Reported composite z-score at or above -0.4? COCCOC(=O)N1C(=O)[C@@]2(c3cc(C#CCCO)ccc31)[C@H](C(=O)NC[C@H](O)c1ccccc1)[C@H]1C(=O)O[C@H](c3ccccc3)[C@H](c3ccccc3)N1[C@@H]2c1ccc(OCCO)cc1
Key: 0

###

Assay: probe aWnt5a binding to arrayed compounds – biochemical, biotinylated probe, 635/667 nm fluorescence, primary screen (AID 1113);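 note: score merges 667 nm fluorescence intensity with signal-to-noise per printed feature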
Settings: small-molecule microarray, higher = more signal
Reported Property: composite z-score

A selection of reference data follows.
# Compound, Reported Property, Observed Value
measured = [
    ("C=CCOC(=O)[C@@H]1[C@H]2C(=O)O[C@H](c3ccccc3)[C@H](c3ccccc3)N2[C@H](c2ccc(OCCOC(=O)[C@H]3C[C@H]4C(=O)N[C@@H](Cc5ccccc5)C(=O)N4[C@H]3c3ccc(O)cc3)cc2)[C@@]12C(=O)Nc1ccc(I)cc12", "composite z-score", -0.135),
    ("C=CCNC(=O)[C@H]1[C@@H]2C(=O)O[C@@H](c3ccccc3)[C@@H](c3ccccc3)N2[C@@H](c2ccc(O)cc2)[C@]12C(=O)Nc1ccc(C#Cc3ccc(OC)cc3)cc12", "composite z-score", -0.219),
    ("C=CCOC(=O)[C@H]1[C@@H]2C(=O)O[C@@H](c3ccccc3)[C@@H](c3ccccc3)N2[C@@H](c2ccc(OCCOC(=O)[C@@H]3C[C@@H]4C(=O)NCC(=O)N4[C@@H]3c3ccc(O)cc3)cc2)[C@]12C(=O)Nc1ccc(I)cc12", "composite z-score", -0.0519),
    ("C=CCOC(=O)[C@@H]1[C@H]2C(=O)O[C@H](c3ccccc3)[C@H](c3ccccc3)N2[C@H](c2ccc(OCCOC(=O)[C@H]3C[C@H]4C(=O)N[C@@H](CC(C)C)C(=O)N4[C@H]3c3cccc(OCCO)c3)cc2)[C@@]12C(=O)Nc1ccc(I)cc12", "composite z-score", -0.0721),
    ("C[n+]1ccc2ccc(O)cc2c1", "composite z-score", -0.124),
]

Exercise: Please look at this compound and report its composite z-score: [N-]=[N+]=NCc1ccccc1C[C@]1(C(N)=O)N=C(c2ccc(OCCCO)cc2)O[C@H]1c1ccccc1N=[N+]=[N-]
Key: 0.193

Exercise: For COC(=O)C(CC#Cc1ccc2c(c1)[C@]1(C(=O)N2)[C@H](C(=O)N2CCCCCCC2)[C@H]2C(=O)O[C@H](c3ccccc3)[C@H](c3ccccc3)N2[C@@H]1c1ccccc1OCCO)C(=O)OC , write its composite z-score.
Key: 1.59

Exercise: Name the recorded composite z-score of the item COc1ccc([Si](C)(C)[C@@H]2[C@@H](CCO)O[C@]3(C(=O)N(Cc4ccccc4)c4ccc(N(C=O)c5ccccc5)cc43)[C@H]2C)cc1 in your answer.
Key: -0.117

Exercise: Entry COc1ccc(C(=O)Nc2cccc(CN3C(=O)[C@@]4(O[C@@H](CC(=O)N5Cc6ccccc6C[C@H]5CO)[C@H]([Si](C)(C)c5ccc(OC)cc5)[C@H]4C)c4ccccc43)c2)cc1 needs its composite z-score filled in; supply it.
Key: -0.0643

Exercise: Give the measured composite z-score for Cc1cc(C)c(C(O)C2C=CC3C(=O)NC(=O)C3N2Nc2ccccn2)c(C)c1 (stereo unspecified)
Key: -0.0596

Exercise: Give the reported value of composite z-score for this record: C[N+](C)(C)CCCCNC(=O)[C@H]1C[C@H]2C(=O)N3CCC[C@H]3C(=O)N2[C@H]1c1ccc(O)cc1
Key: -0.0236

###

Assay: binders of probe aHhip on microarray, primary screen, stem cell growth factor project, biochemical, small-molecule microarray, fluorescence 635/667 (AID 1087);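 note: score merges spot fluorescence at 667nm with spot signal to noise ratio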
Settings: higher = more signal
Reported Property: composite z-score
No unit in the answer, please; the number alone is enough.

Completed entries (count: 3):
# Compound, Observed Value
records = [
    ("O=C(N1CCCCC1)[C@]1(CCS(=O)(=O)c2ccccc2)N=C(c2ccc(OCCCO)cc2)O[C@@H]1c1ccccc1", 0.0623),
    ("COC(=O)c1c(CC[C@@H](CO)NC(=O)Nc2ncn[nH]2)oc(C(=O)Cc2ccccc2)c1C(=O)OC", 0.0722),
    ("O=C1C2C=CC(C(O)c3cccc4ccccc34)N(n3cnnc3)C2C(=O)N1Cc1ccccc1 (centres undefined)", 0.506),
]

Could you now look at the following compound, please?
Exercise: Please report the measured composite z-score for C=C(/C(=C/C[C@@H](OC(C)=O)c1ccc(CO)o1)c1cnc2ccccc2c1)C(C)C
Key: -0.0618

###

Target: Epidermal growth factor receptor (Homo sapiens)
Assay: compounds binding epidermal growth factor receptor – biochemical, small-molecule microarray, 635 nm fluorescence, primary screen (AID 1104);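 note: score merges 667 nm emission intensity with spot signal to noise over triplicate slides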
Conditions: EGFR binding, higher = more signal
Reported Property: composite z-score
Form rule: numeric answer, no unit written next to it.

Known results for compounds:
# Structure Smiles, composite z-score
records = [
    ("CC(C)NC(=O)[C@@H]1c2ccccc2C(=O)N(C2CCCCC2)[C@H]1c1ccc(CO)cc1", 0.101),
    ("O=C1O[C@@H](c2ccccc2)[C@@H](c2ccccc2)N2[C@@H](c3ccc(O)cc3)[C@]3(C(=O)Nc4ccccc43)[C@@H](C(=O)N3CCCCCCC3)[C@H]12", 1.27),
]

Consider the additional compound presented here.
Exercise: Return composite z-score for the following compound: COCCOC(=O)N1C(=O)[C@@]2(c3cc(C#Cc4ccc(OC)cc4)ccc31)[C@H](c1ccc(O)cc1)N1[C@H](c3ccccc3)[C@H](c3ccccc3)OC(=O)[C@H]1[C@@H]2C(=O)N1CCN(c2ncccn2)CC1
Key: 0.375

###

Assay: JC-1 mitochondrial signal, unstimulated adipocytes – cell-based, JC-1 fluorescence, 3T3-L1 adipocytes, 24 h, 100 nL compound, profiling panel (AID 1168); note: test concentration not given here
Details: JC-1 mitochondrial fluorescence, higher = more signal, called active from +8 up or from −8 down
Criterion: z-score meeting or surpassing -0.4. Met: Condition met. Not met: Condition not met.

Record excerpt, results attached:
# Compound, Group
measured = [
    ("O=C1O[C@@H](c2ccccc2)[C@@H](c2ccccc2)N2[C@@H](c3ccc(O)cc3)[C@]3(C(=O)Nc4ccccc43)[C@@H](C(=O)NC[C@H](O)c3ccccc3)[C@H]12", "Condition met"),
    ("C[N+](C)(C)CCCCNC(=O)[C@H]1C[C@H]2C(=O)N3CCC[C@H]3C(=O)N2[C@H]1c1ccc(O)cc1", "Condition not met"),
    ("COCCCNC(=O)[C@@]1(C)c2ccccc2C(=O)N(Cc2ccccc2)[C@H]1c1ccc(CO)cc1", "Condition not met"),
    ("COCCCNC(=O)[C@]1(Cc2ccccc2N=[N+]=[N-])N=C(c2ccc(OCCCO)cc2)O[C@@H]1c1ccccc1CN=[N+]=[N-]", "Condition not met"),
]

Exercise: Hi team, for Cc1cc(C)c(C(O)C2C=CC3C(=O)NC(=O)C3N2Nc2ccccn2)c(C)c1 (configuration not stated) , is the recorded z-score at or above -0.4?
Key: Condition met

Exercise: Can C=CC[C@@]1(C(=O)OC)N=C(c2ccc(OCCCO)cc2)O[C@@H]1c1ccccc1CN=[N+]=[N-] be said to have z-score at or above -0.4?
Key: Condition met

Exercise: Evaluate COCCCNC(=O)[C@@]1(Cc2ccccc2I)c2ccccc2C(=O)N(Cc2ccccc2)[C@H]1c1ccc(CO)cc1 : z-score at minimum -0.4?
Key: Condition not met
